Assay: Inhibition of DENV4 recombinant NS2B-NS3 protease expressed in Escherichia coli using Abz-RRRRSAG-nY-NH2 as substrate preincubated for 20 mins at 37 degC followed by substrate addition measured after 60 mins by fluorescence spectrophotometric analysis
Set-up: species or system dengue virus type 4
Residues, ends and D or L forms follow the SMILES beside them.
valueKind: Ki (µM)

>>> df
                                   molecule  resultunit  observed
0  NC(=O)[C@H](Cc1c[nH]c2ccccc12)NC(=O)[C@H](CS)NC(=O)[C@H](Cc1ccc(O)cc1)NC(=O)[C@@H](N)Cc1c[nH]c2ccccc12 (H-WYCW-NH2)          µM      11.2
